- ASSAYED_SYSTEM: Ubiquitin carboxyl-terminal hydrolase 8 (Homo sapiens)
- PROTOCOL_DESCRIPTION: Ubiquitin-specific protease 8 inhibitors, concentration-effect, biochemical, validation of initial actives (AID 1645862);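 further: potency reflects inhibition of USP8 cleavage of a ubiquitin rhodamine substrate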
- SETUP_CONDITIONS: recombinant USP8 deubiquitinase activity assay
The source made the active and inactive calls. How the calls were made is not given here.
Respond only with the outcome that fits, drawn from yes (1) (active), no (0) (inactive)

Use these answered entries as a reference point.
1) O=C(CN(CC(=O)NCc1ccccc1Cl)c1nc2ccccc2s1)NCc1ccccc1Cl = no (0)
2) COc1cc(NS(=O)(=O)c2ccc(NC(=O)COc3ccc(C)cc3Br)cc2)nc(OC)n1 = no (0)
3) COCC(=O)N1CCC(n2c(C3CC3)nc3sc(C)c(C)c3c2=O)CC1 = no (0)
4) COc1c2nc3ccccc3oc-2cc(=O)c1OC = no (0)
5) COc1ccc(NS(=O)(=O)c2cc(NC(=O)/C=C/c3ccco3)ccc2N2CCCC2)cc1 = no (0)
6) CCCCCC(=O)C(CCCC)c1oc(=O)c(CCCC)c(O)c1CCCC (stereo unspecified) = no (0)
7) CCCCCCCC1OC(=O)Cc2cc(O)c(O)c(O)c21 (stereo unspecified) = yes (1)
8) O=C(Nc1ccc2snnc2c1)Nc1ccc(F)cc1F = no (0)
9) CC(C)=CCc1c2c(c3occ(-c4ccc(O)cc4)c(=O)c3c1O)C=CC(C)(C)O2 = no (0)
10) Cc1cccc(Cl)c1NC(=O)Nc1ccc(NC(=O)c2ccccc2O)cc1 = no (0)

Could you check what this test reported for CCc1ccc(NC(=O)C(C)OC(=O)/C=C/c2ccc(S(=O)(=O)Nc3cccc(S(N)(=O)=O)c3)cc2)cc1 (stereo unspecified) ?
no (0)

Hey, just so you know, these numbers are from PubChem BioAssay AID1645862.
